Tested on: LOX IMVI melanoma
Assay: NCI tumour cell line growth inhibition, 48 h
The entries below are paired with their reported TGI.

smiles_structure	lt_gt_eq	TGI (µM)
Clc1ncnc(Cl)c1Cl	>	100
CC(=O)N[C@@H](Cc1ccc(OP(=O)(O)O)cc1)C(=O)N[C@H]1CCC(=O)N2CCC[C@@H](C(=O)NCc3ccc(Cl)cc3)N2C1=O	>	25
NCCSc1nc2ccccc2s1	=	90.8
Cn1cc(-c2ccc3c(Nc4cccc(NC(=O)Nc5cccc(F)c5)c4)ncnc3c2)cn1	=	3.64
CCOC(=O)c1ccc(Nc2cnc3cc(C(F)(F)F)ccc3n2)cc1	>	100

###

In this section, each of the molecules is paired with its reported TGI.
System: SNB-75 CNS
Experiment: NCI tumour cell line growth inhibition, 48 h
measured_metric: TGI

molecule	measured_on	result
CCOc1ccccc1NC(=O)CC1C(=O)Nc2ccccc2S1=O (stereo unspecified)	SNB-75 CNS	> 100 µM
CCOC(=O)Nc1cc2nnc(-c3ccccc3)nc2c(N)n1	SNB-75 CNS	61.6 µM
O=P1(O)C=CC2(CCCC2)O1	SNB-75 CNS	> 100 µM
O=C[C@@H](CO)O[C@H](C=O)c1c[nH]c(=O)[nH]c1=O	SNB-75 CNS	1310 µM
CC(=O)Nc1ccc(Nc2cc(=O)[nH]c(=O)[nH]2)cc1	SNB-75 CNS	> 100 µM
C/C(CN1C(=O)c2ccccc2C1=O)=N\NS(=O)(=O)c1ccc(C)cc1	SNB-75 CNS	> 100 µM
